# test_description: BSK_4H_SRB: Viability Assessment in the BioMAP Diversity Plus: 4H Assay (AID 2283027);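 also: cells exposed to compound for 24 h before staining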
# setup_conditions: primary human endothelial cells (HUVEC)
# Protocol: BSK_4H is a cell-based, multiplexed-readout assay that uses umbilical vein endothelium, a human vascular primary cell, with measurements taken at 24 hours after chemical dosing in a 96-well plate.BSK_4H_SRB is an assay component measured in the BSK_4H assay. It measures […] related to cell death using Sulforhodamine staining technology.Data from the assay component BSK_4H_SRB was analyzed into 1 assay endpoint. […]
Calls of active or inactive are those of the source. The calls were made as follows: active = hit-call score of the fitted dose curve at least 0.9, where 1 is the maximum; inactive = score below 0.9.
Response enum: true = active, false = inactive

Here's what some known entries look like.
compound	label_class
COc1ccc(C(c2ccc(OC)cc2)C(Cl)(Cl)Cl)cc1	true
N#Cc1cc(Br)c(O)c(Br)c1	true
CC1=C(C(=O)Nc2ccccc2)SCCO1	false
COP(N)(=O)SC (stereo unspecified)	false
COc1cnc(OC)n2nc(NS(=O)(=O)c3c(OCC(F)F)cccc3C(F)(F)F)nc12	false
CC(Oc1ccc(Cl)cc1Cl)C(=O)O (stereo unspecified)	false
O=C(Nc1ccccc1)Nc1ccnc(Cl)c1	false
C=CCC1=C(C)C(OC(=O)C2C(C=C(C)C)C2(C)C)CC1=O (stereo unspecified)	true

Per the records of this test, what outcome belongs to CC(C)(C)c1ccc(CSc2cnn(C(C)(C)C)c(=O)c2Cl)cc1 ?
true

GET /call?item= CNC(=S)S returns the recorded outcome of this test.
true

In this assay, the call recorded for COc1nc(C)nc(NC(=O)NS(=O)(=O)c2ccccc2CCC(F)(F)F)n1 was what?
false

---

# test_description: ATG_DR4_LXR_CIS: Attagene CIS-FACTORIAL HepG2 Assay for human Liver X Receptor (LXR), DR4 submotif (AID 2282929)
# setup_conditions: HepG2 Attagene DR4 cis-reporter, mRNA transcription; actives raise or lower the signal
Calls of active or inactive are those of the source. How the source made its calls: active means hit-call score of the fitted dose curve at least 0.9, where 1 is the maximum; inactive means score below 0.9.
Result category, one only: active, inactive

Example entries and their recorded answers appear below.
molecule	label_class
CC(Oc1ccc(Cl)cc1Cl)C(=O)O (stereo unspecified)	inactive
CCOP(=S)(OCC)SCn1c(=O)oc2cc(Cl)ccc21	active
C=CC1(C)OC(=O)N(c2cc(Cl)cc(Cl)c2)C1=O (stereo unspecified)	inactive
CC1COC(Cn2cncn2)(c2ccc(Oc3ccc(Cl)cc3)cc2Cl)O1 (stereo unspecified)	inactive
CC1=C(C(=O)Nc2ccccc2)SCCO1	inactive
CCNc1nc(Cl)nc(NCC)n1	inactive
CNC(=S)S	inactive
COC(=O)N(OC)c1ccccc1COc1ccn(-c2ccc(Cl)cc2)n1	active
CCOC(=O)CC(SP(=S)(OC)OC)C(=O)OCC (stereo unspecified)	inactive
CCOc1cc(Oc2ccc(C(F)(F)F)cc2Cl)ccc1[N+](=O)[O-]	active

Dear all, I need the recorded test outcome for CC(C)(C)c1ccc(CSc2cnn(C(C)(C)C)c(=O)c2Cl)cc1 , thank you.
active

Test call for this molecule, please: CC(C)C1(C)N=C(c2nc3ccccc3cc2C(=O)O)NC1=O (stereo unspecified)
inactive

Query: recorded result category for C=CCC1=C(C)[C@@H](OC(=O)[C@@H]2[C@@H](C=C(C)C)C2(C)C)CC1=O in this test
inactive

Assay outcome for CCCCNC(=O)n1c(NC(=O)OC)nc2ccccc21 : what was it?
inactive

Assay outcome for COc1cnc(OC)n2nc(NS(=O)(=O)c3c(OCC(F)F)cccc3C(F)(F)F)nc12 : what was it?
inactive

In this assay, the call recorded for Cc1c(F)c(F)c(COC(=O)C2C(/C=C(\Cl)C(F)(F)F)C2(C)C)c(F)c1F (stereo unspecified) was what?
inactive

Short answer needed: outcome of this test for Cc1cc(Cl)ccc1OCC(=O)O ?
inactive

What is the recorded call for this molecule in the test? CCON=C(CC)C1=C(O)CC(c2c(C)cc(C)cc2C)CC1=O (stereo unspecified)
inactive

Which outcome did this test record for the molecule COC(=O)c1ccccc1C(=O)OC ?
inactive

This collection of values is drawn from PubChem BioAssay (EPA / NIEHS).
